TARGET DESC: T1, PUF4 RNA-binding domain (Saccharomyces cerevisiae, UniProt P25339 537-888)
T1 sequence: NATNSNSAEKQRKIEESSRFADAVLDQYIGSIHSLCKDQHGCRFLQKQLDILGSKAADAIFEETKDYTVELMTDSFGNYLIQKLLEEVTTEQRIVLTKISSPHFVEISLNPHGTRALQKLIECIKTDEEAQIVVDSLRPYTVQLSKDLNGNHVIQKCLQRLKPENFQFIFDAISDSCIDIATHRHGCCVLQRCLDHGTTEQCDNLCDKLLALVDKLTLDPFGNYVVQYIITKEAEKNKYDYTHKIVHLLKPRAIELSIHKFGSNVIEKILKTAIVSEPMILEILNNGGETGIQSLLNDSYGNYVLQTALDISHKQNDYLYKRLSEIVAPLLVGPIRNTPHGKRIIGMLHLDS
TEST PROTOCOL: Mg; RNA-MaP; 20 mM Na-HEPES pH 7.4, 30 mM KOAc, 0.75 mM MgCl2, 0.1% Tween-20, 5% glycerol, 0.1 mg/mL BSA, 2 mM DTT; 25 C; 0.0125-409.6 nM protein
EXPERIMENTAL SETUP: tags: N-His6-TEV cleaved; C-SNAP kept, Cy3B-labelled; label: tethered on chip by stalled RNA polymerase
pKd: −log10 of the molar value.
So basically: pKd at 8 or higher? That is Y. Lower than 8? That is N.

{"BINDER": "Id_iii_S4_P3E.5_K3.1_C3.3_[T-1A]_H3.1_A3.1_F3.1_T3.2 (ssRNA) RNA: UUUGACAACUGAUCGUUCUUUCUUCAUGUAUAUAUAUUCUUUCUCGAUCAGUUGUCUUU", "ASSIGNED CATEGORY": "Y"}
{"BINDER": "UCUCUUCAACACUAUUACGUCUCUU (ssRNA) [Id_ii_S1_P4E.4_K4.3_C4.2_[T-1A]_H4.3_A4.1_F4.1_T4.2_[G10C]_[T11G]]", "ASSIGNED CATEGORY": "N"}
{"BINDER": "UCUCUUCUUGUAUAUUAGUUCUCUU (ssRNA) [If_S1_P4E.2_K4.1_C4.2_H4.1_A4.1_F4.1_T4.2]", "ASSIGNED CATEGORY": "Y"}
{"BINDER": "UCUCUUGUUAUAUAUAUCUCUCUU (ssRNA) [Id_ii_S1_P3E.3_K3.2_C3.2_[C-2G]_H3.2_A3.1_F3.1_T3.2_[A10C]]", "ASSIGNED CATEGORY": "N"}
